# Tested on: HCT116 MTAP null cells
# EXPERIMENTAL_DETAILS: HCT116 MTAP null cell line proliferation (CellTiter-Glo cell viability, 6 days)
# Format: cell-based
# CONDITIONS: HCT116-MTAP null, 144 h, HCT116 MTAP null cells, 6 days of treatment, CellTiter-Glo cell viability; read-out: HCT-116 MTAP null IC50
pIC50: −log10 of the molar value.
REPORTED_METRIC: pIC50

Consider the worked cases shown below.
# COMPOUND, pIC50
measured = [
    ("Nc1nc2cc(F)c(C(=O)N3CC(O)(c4ccc(C(F)(F)F)cc4)C3)cc2c2c1COC2 [Example 429]", 6.42),
    ("Cn1ncc2c(N)nc3cc(Cl)c(C(=O)N4CC(c5ccc(C(F)(F)F)cc5)C4)cc3c21 [Example 440]", 7.85),
    ("Nc1nc2cnc(C(=O)N3CCOCC3c3c(F)cc(Br)cc3F)cc2c2c1COC2 (racemic) [Example 505]", 6.48),
    ("C[C@H]1OCc2c1c(N)nc1ccc(C(=O)N3CC(c4ccccc4)C4COCCC43)cc21 (stereo partly drawn) [Example 397]", 6.42),
]

P. C[C@@H]1COC[C@H](c2ccc(OC(F)(F)F)cn2)N1C(=O)c1cc2c3c(c(N)nc2cn1)[C@@H](C)OC3 (racemic) [Example 380]
Q. C[C@H]1OCc2c1c(N)nc1cnc(C(=O)N3[C@@H](C)COC[C@H]3c3ccc(C(F)(F)F)cn3)cc21 (racemic) [Example 307]
From the items above, decide which of P and Q has the lower pIC50 reading. Pick one; state its label.
P
(P: 7.32, Q: 7.66)
